B1: TPR t1 (parent)
chain: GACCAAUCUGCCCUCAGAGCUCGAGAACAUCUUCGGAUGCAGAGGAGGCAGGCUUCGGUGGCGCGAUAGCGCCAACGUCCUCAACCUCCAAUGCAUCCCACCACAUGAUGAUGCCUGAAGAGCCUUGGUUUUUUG

variants of: B1; experiment: polymerase ribozyme fitness, log enrichment relative to wild type (log ratio); higher = more active; in vitro selection for triplet polymerase activity
Readout kind: polymerase ribozyme fitness (log ratio)
Answers are plain numbers.

Before answering, review these 6 worked examples.
Sequence content	Val
GACCAAUCUGCCCUCAGAGCUCGAGAACAUCUUCGGAUGCACAGGAGGCAGGCUUCGGUGGCGCGAUAGCGGCAACGUCCUCAACCUCCAAUGCAUCCCACCACAUGAUGAUGCCUGAAGAGCCUUGGUUUUUUG [G42C C72G]	-1.76
GACCAAUCUGCCCUCAGAGCUCGAGAACAUCUUCGGAUGCAGACGAGGCAGGCUUCUGUGGCUCGAUAGCGCCAACGUCCUCAACCUCCAAUGCAUCCCACCACAUGAUGAUGCCUGAAGAGCCUUGGUUUUUUG [G44C G57U G63U]	-2.08
GACCAAUCUGCCCUCAGAGCUCGAGAACAUCUUCUGAUGCAGAGGAGGCAGGCUUCGGUGGCGCGAUAGCGCCAACGUCCUCAACCUCCAAUGCAUCCCUCCACAUGAUGAUGCCUGAAGAGCCUUGGUUUUUUG [G35U A100U]	-5.66
GACCAAUCUGCCCUCAGAGCUCGAUAACAUCUUCGGAUGCAGAGGAGGCAGGCUUCGGUGGCGGGAUAGCGCCAACGUCCUCAACCUCCAAUGUAUCCCACCACAUGAUGAUGCCUGAAGAGCGUUGGUUUUUUG [G25U C64G C94U C124G]	-6.12
GACCAAUCUGCCCUCAGAGCUCGAGAACAUCUUCGGAUGCAGAGGAGGCAGGCUUCGGUAGCGCGAUAGCGCCAACGUCCUCAACCUCCAAUGCAUCCCACCACAUGAUCAUGCCUGAAGAGCCUUGGUUUUUUG [G60A G110C]	-3.08
GACCAAUCUGCGCUAAGAGCUCGAGAACAUCUUCGGAUGCAGAGGAGGCAGGCUUCGGUGGCGCGAUAGCGCCAACGUCCUCAACCUCCAAUGCAUCCCACCACAUGGUGCUGCCUGAAGAGCCUUGGUUUUUUG [C12G C15A A108G A111C]	-4.53

State recorded polymerase ribozyme fitness (log ratio) for all listed variants.
1. GACCAAUCUGCCCUCAGAGCUGGAGAACAUCUUCGGAUGCAGAGGAGGCAGGCUUCGCUGGCGCGAUAGCGCCAACGUCCUCAACCUCCAAUGCAUCCCACCACAUGAUGAUGCCUGAAGAGCCUUGGUUUUUUG [C22G G58C]
2. GACCCAUCUGCCCUCAGAGCUCGAGAACAUCUUCGGAUGCAGAGGAGGUAGGAUUCGGUGGCGCGAUAGCGCCAACGUCCUCAACCUCCAAUGCAUCCCACCACAUGAUGAUGCCUGAAGAGCCUUGGUUUUUUG [A5C C49U C53A]
3. GACCAAUCUGCCCUCAGAGCUCGAGAACAUCUUCGAAUGCAGAGGAGUCAGGCUUCGGUGGCGCGAUAGCGCCAACGUCCUCAGCCUCCAAUGCAUCCCACCACAUGAUGAUGCCUGAAGAGCCUUGGUUUUUUG [G36A G48U A84G]
4. GACCAAUCUGCCCUCAGAGCUCGAGAACAUCUUCGGACGCAGAGGAGGCAGGGUUCGGAGGCGCGAUAGCGCCAACGUCCUCAACCUCCAAUGCAUCCCACCACAAGAUGAUGCCUGAAGAGCCUUGGUUUUUUG [U38C C53G U59A U106A]
5. GACCAAUCUGCCCUGAGAGCUCGAGAACGUCUUCGGAUUCAGAGGAGGCAGGCUUCGGUGGCGCGAUAUCGCCAACGUCCUCAACCUCCAAUGCAUCCCACCACAUGAUGAUGCCUGAAGAGCCUUGGUUUUUUG [C15G A29G G39U G69U]

1. -2.94
2. -1.24
3. -2.02
4. -0.127
5. -4.2
